- assayed-target: human PCSK9 / human LDLR EGFa domain interaction (Homo sapiens)
- procedure-details: TR-FRET assay of inhibition of the PCSK9-LDLR protein-protein interaction
- reported-conditions: 20 nM avitag-biotinylated human PCSK9, 20 nM his-tagged human LDLR EGFa domain, 2 hours, room temperature
Numbered stars: 1 amine (or outer) side, 2 acyl side, 3 side chain; on linkers, the order of the positions; unused ones are H or OH. Bridge positions count the residues as written; N and C are the ends. Square brackets hold non-standard residues; d marks the D form. Peptide text beside a SMILES is read from it. Trp(7-aza) = N[C@@H](Cc1c[nH]c2ncccc12)C(=O)O; mXylylene = c1cc(C[*:1])cc(C[*:2])c1; Tle = CC(C)(C)[C@H](N)C(=O)O; hSer = N[C@@H](CCO)C(=O)O; Nva = CCC[C@H](N)C(=O)O; Mpa = O=C(O)CCS
Quick reference: IC50 of the listed items.
measurement-kind: IC50

{"compound": "CCC[C@@H]1NC(=O)[C@H](Cc2c[nH]c3ncccc23)NC(=O)[C@H]([C@@H](C)O)NC(=O)[C@H](Cc2c[nH]cn2)NC(=O)[C@H](Cc2ccc(O)cc2)NC(=O)[C@H](C(C)(C)C)NC(=O)CCSCc2cccc(c2)CSC[C@@H](C(N)=O)NC(=O)[C@H]([C@@H](C)O)NC(=O)[C@H](CCC)NC(=O)[C@H](Cc2ccc(O)cc2)NC(=O)[C@H](CCO)NC1=O [Compound 274] ([Mpa][Tle]YHT[Trp(7-aza)][Nva][hSer]Y[Nva]TC-NH2; linker 1-12 via mXylylene)", "measured-value": "100 to 1000 nM"}
{"compound": "CCC[C@@H]1NC(=O)[C@H](Cc2c[nH]c3ncccc23)NC(=O)[C@H]([C@@H](C)O)NC(=O)[C@@H]2CCCN2C(=O)[C@H](Cc2ccc(O)cc2)NC(=O)[C@H](C(C)(C)C)NC(=O)CCSCc2cccc(c2)CSC[C@@H](C(N)=O)NC(=O)[C@H]([C@@H](C)O)NC(=O)[C@H](CCC)NC(=O)[C@H](Cc2ccc(O)cc2)NC(=O)[C@H](C)NC1=O [Compound 157] ([Mpa][Tle]YPT[Trp(7-aza)][Nva]AY[Nva]TC-NH2; linker 1-12 via mXylylene)", "measured-value": "100 to 1000 nM"}

###

- assayed-target: human PCSK9 / human LDLR EGFa domain interaction (Homo sapiens, UniProt Q8NBP7)
- Sequence (Q8NBP7 153-692): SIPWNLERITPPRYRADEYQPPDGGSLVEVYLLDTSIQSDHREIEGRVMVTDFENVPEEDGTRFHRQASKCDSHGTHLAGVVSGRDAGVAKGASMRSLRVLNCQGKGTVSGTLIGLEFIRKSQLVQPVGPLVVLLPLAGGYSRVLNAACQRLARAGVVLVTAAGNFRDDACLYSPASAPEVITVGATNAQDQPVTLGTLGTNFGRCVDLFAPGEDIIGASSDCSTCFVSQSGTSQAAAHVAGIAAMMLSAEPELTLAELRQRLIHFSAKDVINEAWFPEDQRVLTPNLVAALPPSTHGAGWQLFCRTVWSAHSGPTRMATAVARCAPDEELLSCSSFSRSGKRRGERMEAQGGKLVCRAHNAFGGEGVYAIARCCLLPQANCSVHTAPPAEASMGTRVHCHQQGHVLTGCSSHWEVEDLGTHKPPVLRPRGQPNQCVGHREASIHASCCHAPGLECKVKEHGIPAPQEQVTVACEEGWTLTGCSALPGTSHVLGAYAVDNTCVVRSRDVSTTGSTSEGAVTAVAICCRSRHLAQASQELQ
- Sequence (Q8NBP7 31-152 partner limits assumed): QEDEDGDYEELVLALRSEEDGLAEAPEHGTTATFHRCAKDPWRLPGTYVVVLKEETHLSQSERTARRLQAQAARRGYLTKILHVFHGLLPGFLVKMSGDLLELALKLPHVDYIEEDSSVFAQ
- procedure-details: TR-FRET assay of inhibition of the PCSK9-LDLR protein-protein interaction
- reported-conditions: 20 nM avitag-biotinylated human PCSK9, 20 nM his-tagged human LDLR EGFa domain, 2 hours, room temperature
Numbered stars: 1 amine (or outer) side, 2 acyl side, 3 side chain; on linkers, the order of the positions; unused ones are H or OH. Bridge positions count the residues as written; N and C are the ends. Square brackets hold non-standard residues; d marks the D form. Peptide text beside a SMILES is read from it. Phe(4-guanidino) = N=C(N)Nc1ccc(C[C@H](N)C(=O)O)cc1; Phe(4-COOH) = N[C@@H](Cc1ccc(C(=O)O)cc1)C(=O)O; Trp(7-aza) = N[C@@H](Cc1c[nH]c2ncccc12)C(=O)O; mXylylene = c1cc(C[*:1])cc(C[*:2])c1; Tle = CC(C)(C)[C@H](N)C(=O)O; Nva = CCC[C@H](N)C(=O)O; Mpa = O=C(O)CCS
Quick reference: IC50 of the listed items.
measurement-kind: IC50

{"compound": "CCC[C@@H]1NC(=O)[C@H](Cc2c[nH]c3ncccc23)NC(=O)[C@H]([C@@H](C)O)NC(=O)[C@H](Cc2c[nH]cn2)NC(=O)[C@H](Cc2ccc(O)cc2)NC(=O)[C@H](C(C)(C)C)NC(=O)CCSCc2cccc(c2)CSC[C@@H](C(N)=O)NC(=O)[C@H]([C@@H](C)O)NC(=O)[C@H](CCC)NC(=O)[C@H](Cc2ccc(O)cc2)NC(=O)[C@H](Cc2ccc(C(=O)O)cc2)NC1=O [Compound 278] ([Mpa][Tle]YHT[Trp(7-aza)][Nva][Phe(4-COOH)]Y[Nva]TC-NH2; linker 1-12 via mXylylene)", "measurement-kind": "IC50", "measured-value": "21 to 50 µM"}
{"compound": "CCC[C@@H]1NC(=O)[C@H](Cc2c[nH]c3ncccc23)NC(=O)[C@H]([C@@H](C)O)NC(=O)[C@H](Cc2c[nH]cn2)NC(=O)[C@H](Cc2ccc(O)cc2)NC(=O)[C@H](C(C)(C)C)NC(=O)CCSCc2cccc(c2)CSC[C@@H](C(N)=O)NC(=O)[C@H]([C@@H](C)O)NC(=O)[C@H](CCC)NC(=O)[C@H](Cc2ccc(NC(=N)N)cc2)NC(=O)[C@H](CCC(=O)O)NC1=O [Compound 323] ([Mpa][Tle]YHT[Trp(7-aza)][Nva]E[Phe(4-guanidino)][Nva]TC-NH2; linker 1-12 via mXylylene)", "measurement-kind": "IC50", "measured-value": "1 to 21 µM"}
